measured_on: FGFR3 (UniProt P22607)
Sequence (P22607 whole entry, looked up): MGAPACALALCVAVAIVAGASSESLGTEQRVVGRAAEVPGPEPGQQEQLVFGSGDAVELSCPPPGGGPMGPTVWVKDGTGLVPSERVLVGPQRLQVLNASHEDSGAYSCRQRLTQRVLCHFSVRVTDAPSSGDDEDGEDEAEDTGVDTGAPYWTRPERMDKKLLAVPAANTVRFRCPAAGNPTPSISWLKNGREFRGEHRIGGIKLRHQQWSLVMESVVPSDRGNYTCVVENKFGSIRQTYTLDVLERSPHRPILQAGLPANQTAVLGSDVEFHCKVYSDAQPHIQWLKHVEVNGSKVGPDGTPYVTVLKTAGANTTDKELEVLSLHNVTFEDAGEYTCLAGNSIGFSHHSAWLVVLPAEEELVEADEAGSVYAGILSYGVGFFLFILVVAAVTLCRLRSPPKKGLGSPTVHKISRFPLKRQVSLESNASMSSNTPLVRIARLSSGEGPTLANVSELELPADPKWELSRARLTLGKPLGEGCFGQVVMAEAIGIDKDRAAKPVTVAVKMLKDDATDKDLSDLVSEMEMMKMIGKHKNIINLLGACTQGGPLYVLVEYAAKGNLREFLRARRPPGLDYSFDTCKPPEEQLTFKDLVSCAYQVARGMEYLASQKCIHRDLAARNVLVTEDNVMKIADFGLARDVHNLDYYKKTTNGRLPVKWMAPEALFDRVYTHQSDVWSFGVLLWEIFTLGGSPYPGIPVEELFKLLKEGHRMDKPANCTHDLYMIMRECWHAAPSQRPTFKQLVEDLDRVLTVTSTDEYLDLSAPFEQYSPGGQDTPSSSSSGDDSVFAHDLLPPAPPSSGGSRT
test_protocol: phosphorylation enrichment, bacterial display (enrichment ratio); higher = better substrate or ligand; peptides without Tyr show the background;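 note: 11-residue human phosphosite peptides and single-mutation variants displayed on the E. coli surface, counted by deep sequencing, each peptide's frequency after selection divided by its frequency in the unselected input library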;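 note: frequency after pTyr selection over input frequency; kinase dosed for 20-30% of maximal phosphorylation in three min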
phosphorylation enrichment values for the sequences below.

Observe how each entry below is paired with its result.
SVKVFYKKCWS [EPHA7_Y202_YF]
0.841
YCIDHYLGKEM [G6PD_Y202_R198C]
0.558
KALKQYRAGPS [DDX27_Y763]
0.368
PVDTFYDSTRG [DYNC2H1_Y2231_M2227V_YF]
0.722
ADKSVYLMGLN [MYH7_Y386_A385V]
0.523

# sequence ENRKFYKDLKE [PURA_Y156_M157K_YF] ; its phosphorylation enrichment = 0.493

# sequence KACKHYLTKRT [ZBTB5_Y118_T121K] ; its phosphorylation enrichment = 1.19

# sequence PSALGYSPSLR [LLGL2_Y40] ; its phosphorylation enrichment = 0.46

# sequence IQKWEYVPLGP [FAH_Y244] ; its phosphorylation enrichment = 0.822

# sequence AGIKAYQSCLQ [ADGRA2_Y377_T375K] ; its phosphorylation enrichment = 0.572

# sequence CTTIHYNFLCN [TP53_Y234_M237L_YF] ; its phosphorylation enrichment = 0.674

# sequence LVMFIDAIFGM [SCN1A_Y1684_Y1684D] ; its phosphorylation enrichment = 2.33

# sequence PSPTKYSLSPS [RANBP2_Y785_R784K] ; its phosphorylation enrichment = 0.471

* * *

measured_on: Fyn (UniProt P06241)
Sequence (P06241 whole entry, looked up): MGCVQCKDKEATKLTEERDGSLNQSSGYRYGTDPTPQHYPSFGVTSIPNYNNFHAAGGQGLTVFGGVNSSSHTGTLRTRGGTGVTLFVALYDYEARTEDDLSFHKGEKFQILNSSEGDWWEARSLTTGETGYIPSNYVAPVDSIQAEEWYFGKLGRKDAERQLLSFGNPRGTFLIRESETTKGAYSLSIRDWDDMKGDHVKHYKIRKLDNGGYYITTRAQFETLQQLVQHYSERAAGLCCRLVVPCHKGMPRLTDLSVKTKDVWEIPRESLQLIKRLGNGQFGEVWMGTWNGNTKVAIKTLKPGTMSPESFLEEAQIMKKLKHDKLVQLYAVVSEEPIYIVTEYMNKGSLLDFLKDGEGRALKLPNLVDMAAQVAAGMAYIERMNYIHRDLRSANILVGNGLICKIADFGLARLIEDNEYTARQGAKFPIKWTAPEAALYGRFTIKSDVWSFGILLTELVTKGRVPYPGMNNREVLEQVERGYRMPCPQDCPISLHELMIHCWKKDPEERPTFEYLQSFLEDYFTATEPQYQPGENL
test_protocol: phosphorylation enrichment, bacterial display (enrichment ratio); higher = better substrate or ligand; peptides without Tyr show the background
phosphorylation enrichment values for the sequences below.
Number, no unit, nothing else.

Observe how each entry below is paired with its result.
VRVQLYDPDFM [CYP4A22_Y100_Y104F]
0.419
TNFPLYLRSLE [MTM1_Y71_R69P_YF]
0.413

# sequence PKEQKYSFLQN [GH1_Y68] ; its phosphorylation enrichment = 0.692

# sequence FTFDPYSEEDP [IL2RB_Y387_YF] ; its phosphorylation enrichment = 0.839

# sequence VREIRYQGGNR [VWF_Y1570] ; its phosphorylation enrichment = 0.421

# sequence ELAVNYQEQAS [SLC9A9_Y591_I589V] ; its phosphorylation enrichment = 0.534

# sequence LTTEAYEWEPR [ELMOD3_Y61] ; its phosphorylation enrichment = 1.1

# sequence FLLRVYSIFSK [SGCE_Y38_T36R] ; its phosphorylation enrichment = 0.437

# sequence GRIHSYRGHLW [VHL_Y112_R107G] ; its phosphorylation enrichment = 0.38

# sequence GARGRYIMGGP [TNK1_Y277_V278I] ; its phosphorylation enrichment = 0.433

# sequence DDFDLYGGEKF [PTPN11_Y66_Y62D_YF] ; its phosphorylation enrichment = 2.27

# sequence LHNLFYQLEAE [PKP2_Y616_S615F] ; its phosphorylation enrichment = 8.59

# sequence PLDGEYFTRQI [TP53_Y327_L330R] ; its phosphorylation enrichment = 0.547

# sequence FGPPQYNIQFS [ERBB2IP_Y977_YF] ; its phosphorylation enrichment = 0.364

# sequence IVKAYYVRARA [AIPL1_Y268] ; its phosphorylation enrichment = 0.466

# sequence SDGKRYRVPSD [HHIPL2_Y395_H391D] ; its phosphorylation enrichment = 0.338

# sequence IIEDPYYGNDF [ACP1_Y132_S137F] ; its phosphorylation enrichment = 2.71

# sequence VIKDKYPKARY [APTX_Y209] ; its phosphorylation enrichment = 0.256

# sequence RRIHSYRGQLW [VHL_Y112_H115Q] ; its phosphorylation enrichment = 0.883

# sequence GSRGKCSSGFR [ATM_Y332_Y332C] ; its phosphorylation enrichment = 0.395
